# ASSAY_METHOD_TEXT: inhibitors of hydroxyurea-induced Chk1 phosphorylation, primary screen, imaging, HeLa, phospho-Chk1 antibody, percent positive cells (AID 1186)
# MEASUREMENT_SETUP: hydroxyurea-induced phospho-Chk1 immunofluorescence imaging, higher = more signal
Measured z-score accompanies every entry in the list below.
MEASURED_ENDPOINT: z-score

{"columns": ["COMPOUND", "MEASURED_NUMBER"],
 "data": [
  ["CCOC(=O)C[C@H]1[C@H](OC(=O)Cc2ccc3c(c2)OCO3)[C@@H](NC(=O)CC(C)C)c2cc(OCCCO)ccc2N1C(=O)c1ccc2ccccc2n1", -0.0615],
  ["O=C(CS)NCCCCCCNC(=O)[C@H]1C[C@H]2C(=O)NCC(=O)N2[C@H]1c1cccc(OCCO)c1", -0.321],
  ["CC(C)[Si](C#Cc1ccccc1)(O[C@H](c1ccccc1)c1cn(Cc2ccccc2)nn1)C(C)C", 0.0998],
  ["COC(=O)[C@@]1(Cc2ccc(F)cc2)[C@H]2c3cc(C(=O)N(C)C)n(Cc4ccc(C(F)(F)F)nc4)c3C[C@H]2CN1C(=O)c1ccccc1", 0.93],
  ["COCCOC(=O)N1C(=O)[C@@]2(c3cc(C#CC4(O)CCCCCC4)ccc31)[C@H](C(N)=O)[C@H]1C(=O)O[C@H](c3ccccc3)[C@H](c3ccccc3)N1[C@@H]2c1ccc(OCCO)cc1", -0.0908],
  ["COCCOC(=O)N1C(=O)[C@@]2(c3cc(C#CCCO)ccc31)[C@H](c1ccc(O)cc1)N1[C@H](c3ccccc3)[C@H](c3ccccc3)OC(=O)[C@H]1[C@@H]2C(=O)NC[C@H](O)c1ccccc1", 0.0615],
  ["O=C1C2C=CC(C(O)C(c3ccccc3)c3ccccc3)N(Nc3ccccc3F)C2C(=O)N1c1ccccc1 (configuration not stated)", 0.837],
  ["COC(=O)C(CC#Cc1ccc2c(c1)[C@]1(C(=O)N2)[C@H](C(=O)N2CCCCCCC2)[C@H]2C(=O)O[C@H](c3ccccc3)[C@H](c3ccccc3)N2[C@@H]1c1ccc(OCCO)cc1)C(=O)OC", 0.185],
  ["C=CCC(OC(C)=O)[C@@H]1[C@@H](N(Cc2cccc3ccccc23)C(=O)c2ccc(C)cc2)c2cc(OCCCO)ccc2N1C(=O)Cc1ccc2ccccc2c1 (some centres not stated)", -0.648],
  ["[N-]=[N+]=NCc1ccccc1[C@H]1OC(c2ccc(OCCCO)cc2)=N[C@@]1(CCS(=O)(=O)c1ccccc1)C(=O)O", -0.0059],
  ["COC(=O)[C@@]1(Cc2ccccc2)[C@H]2c3cc(C(=O)N(C)C)n(CCF)c3C[C@H]2CN1C(=O)c1ccccc1", -0.441],
  ["C=CCOC(=O)[C@H]1[C@@H]2C(=O)O[C@@H](c3ccccc3)[C@@H](c3ccccc3)N2[C@@H](c2ccc(OCCOC(=O)[C@H]3C[C@H]4C(=O)NCC(=O)N4[C@H]3c3cccc(OCCO)c3)cc2)[C@]12C(=O)Nc1ccc(I)cc12", -1.38]
]}

====

# TARGET_OF_ASSAY: Carbonic anhydrase 2 (Homo sapiens)
# ASSAY_METHOD_TEXT: CAII small-molecule binders, profiling panel, biochemical, small-molecule microarray, Alexa647-labelled CAII (AID 1122)
# MEASUREMENT_SETUP: CAII-A647 binding fluorescence, higher = more signal
Below: a set of entries, each annotated with reported composite z-score.

{"columns": ["COMPOUND", "composite z-score"],
 "data": [
  ["COCCOC(=O)N1C(=O)[C@@]2(c3ccccc31)[C@H](C(=O)Nc1nc3ccccc3s1)[C@H]1C(=O)O[C@H](c3ccccc3)[C@H](c3ccccc3)N1[C@@H]2c1ccccc1OCCO", 0.526],
  ["CC(CO)N1C(=O)[C@@H]2[C@H]3C(=O)OCC=C[C@H]3OC23C=CCN(c2ccc4ccccc4c2)C(=O)[C@@H]13 (some centres undefined)", 0.324],
  ["CCCCC=C[C@@H](NC(=O)C(C)(C)C)c1ccccc1", 0.509],
  ["COc1cc2c(cc1OC)CN(C(=O)[C@@H]1[C@H]3C(=O)O[C@H](c4ccccc4)[C@H](c4ccccc4)N3[C@H](c3ccc(O)cc3)[C@@]13C(=O)Nc1ccc(C#CC4=CCCCC4)cc13)CC2", 0.5],
  ["O=C1NC(=O)C2C1C=CC(C(O)C1CCCCC1)N2Nc1ccccn1 (centres undefined)", 0.827],
  ["COC(=O)C(CC#Cc1ccc2c(c1)[C@]1(C(=O)N2)[C@H](c2ccc(OCCO)cc2)N2[C@H](c3ccccc3)[C@H](c3ccccc3)OC(=O)[C@H]2[C@@H]1C(N)=O)C(=O)OC", 0.389],
  ["NCCCCCCNC(=O)[C@@H]1C[C@@H]2C(=O)NCC(=O)N2[C@@H]1c1cccc(OCCO)c1", 0.695],
  ["CCOC(=O)C[C@H]1[C@H](OC(=O)c2cc3ccccc3oc2=O)[C@@H](NC(=O)c2ccc(-c3ccccc3)cc2)c2cc(OCCCO)ccc2N1C(=O)Cc1ccc(OC)cc1", 0.383],
  ["CCOC(=O)C1=C[C@@H](C(C)(C)C)N(S(=O)(=O)c2ccc(C)cc2)[C@H]1c1ccc(OC)cc1", 0.392],
  ["CC[C@@H]1C=C(C(=O)O)[C@H](c2cccc(Cl)c2)N1S(=O)(=O)c1ccc(C)cc1", 0.824],
  ["CO[C@H]1O[C@H](CO)[C@@H](OC(=O)Nc2cccc(F)c2)[C@H](OC(=O)c2cc3ccccc3[nH]2)[C@H]1OC(=O)c1cc2ccccc2[nH]1", 0.209],
  ["CN(C)CCCCNC(=O)[C@H]1C[C@H]2C(=O)N[C@@H](CCCCN(C)C)C(=O)N2[C@H]1c1ccc(O)cc1", 0.518],
  ["CCOC(=O)C1=CCC(c2ccncc2)N(S(=O)(=O)c2ccc(C)cc2)C1 (centres undefined)", 0.702],
  ["COc1cc2c(cc1O)C(C)N(Cc1sc3ccccc3c1Cl)CC2 (centres undefined)", 0.937],
  ["C=C(COC)C(=O)CC[C@H](OC(C)=O)c1ccc(CO)o1", 0.472],
  ["O=C1O[C@@H](c2ccccc2)[C@@H](c2ccccc2)N2[C@@H](c3ccccc3OCCO)[C@]3(C(=O)Nc4ccc(C#CC5(O)CCCCCC5)cc43)[C@@H](C(=O)N3CCCCCCC3)[C@H]12", 1.06],
  ["[N-]=[N+]=NCc1ccccc1[C@H]1OC(c2ccc(OCCCO)cc2)=N[C@@]1(Cc1ccccc1N=[N+]=[N-])C(=O)O", 0.63],
  ["C=C(CCCC)/C(=C/C[C@@H](OC(C)=O)c1ccc(OCCO)cc1)c1cc(C(=O)OC)ccc1OC", 0.721],
  ["CC(C)(C)OC(=O)CC[C@]1(C(N)=O)N=C(c2ccc(OCCCO)cc2)O[C@H]1c1ccccc1N=[N+]=[N-]", 0.791],
  ["CO[C@H]1O[C@H](CO)[C@@H](OC(=O)Nc2ccccc2)[C@@H]2OC(=O)[C@@H](Cc3ccccc3)C/C=C/C[C@H](Cc3ccccc3)C(=O)O[C@@H]12", 0.315],
  ["O=C(N1CCOCC1)[C@]1(CCS(=O)(=O)c2ccccc2)N=C(c2ccc(OCCCO)cc2)O[C@@H]1c1ccccc1", 0.441],
  ["[N-]=[N+]=NCc1ccccc1C[C@]1(C(=O)N2CCCCC2)COC(c2ccc(OCCCO)cc2)=N1", 0.375],
  ["C[N+](C)(C)CCCC[C@@H]1NC(=O)[C@H]2C[C@@H](C(=O)NCCCCCN)[C@@H](c3ccc(O)cc3)N2C1=O", 0.67],
  ["CC1C2C(CCCO)=CC(C3C(=O)N(C)C(=O)C23)N1Cc1cccc(OC(F)(F)F)c1 (centres undefined)", 0.854],
  ["CC(C)[Si](C#Cc1ccccc1)(O[C@H](c1ccccc1)c1cn(Cc2ccccc2)nn1)C(C)C", 0.57],
  ["Cc1ccc(S[C@]2(C(=O)NCCN3CCOCC3)CC(=O)N(C(C)C)[C@@H]2c2ccc(CO)cc2I)cc1", 0.288],
  ["C=CCNC(=O)[C@H]1[C@@H]2C(=O)O[C@@H](c3ccccc3)[C@@H](c3ccccc3)N2[C@@H](c2ccc(O)cc2)[C@]12C(=O)Nc1ccc(C#CCC(C(=O)OC)C(=O)OC)cc12", 0.649],
  ["COc1ccc([Si](C)(C)[C@H]2[C@H](CC(=O)N3CCC[C@H]3CO)O[C@@]3(C(=O)N(Cc4cccc(N5CCCCC5=O)c4)c4ccccc43)[C@@H]2C)cc1", 0.462],
  ["[N-]=[N+]=Nc1ccccc1C[C@]1(C(=O)N2CCCCC2)N=C(c2ccc(OCCCO)cc2)O[C@H]1c1ccccc1", 0.708]
]}
